The measured values listed here are drawn from PubChem BioAssay.

Test: small-molecule microarray binders of probe aXIP, primary screen, biochemical, NeuroSMM set, 635/667 nm fluorescence (AID 1119);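 further: probe is the protein aXip251-270 applied at 1 µg/mL to compound-printed slides; binding of probe to printed compounds measured as 667 nm fluorescence plus signal to noise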
Conditions: higher = more signal, called active from +8 up or from −8 down
Measured composite Z-score by item

>  <molecule>
NC(=O)NCC#Cc1ccc2c(c1)[C@]1(C(=O)N2)[C@H](C(=O)N2CCCCCCC2)[C@H]2C(=O)O[C@H](c3ccccc3)[C@H](c3ccccc3)N2[C@@H]1c1ccccc1OCCO

>  <composite Z-score>
4.79

$$$$
>  <molecule>
CO[C@H]1O[C@H](CO)[C@@H](OC(=O)Nc2ccccc2)[C@H](OC(=O)Nc2ccc3c(c2)OCO3)[C@@H]1OC(=O)Nc1ccc2c(c1)OCO2

>  <composite Z-score>
0.741

$$$$
>  <molecule>
COCCOC(=O)N1C(=O)[C@@]2(c3cc(C#CCC(C(=O)OC)C(=O)OC)ccc31)[C@H](C(=O)N1CCN(c3ncccn3)CC1)[C@H]1C(=O)O[C@H](c3ccccc3)[C@H](c3ccccc3)N1[C@@H]2c1ccc(O)cc1

>  <composite Z-score>
0.394

$$$$
>  <molecule>
C=CCc1cccc([C@@H]2[C@@H](C)CC[C@H]3C(=O)N4[C@H](c5cccc(CC=C)c5)[C@@H](C)CC[C@H]4C(=O)N23)c1

>  <composite Z-score>
0.576

$$$$
>  <molecule>
CN1CCC(CCCO)=CC1C1CC1 (stereo unspecified)

>  <composite Z-score>
3.24

$$$$
>  <molecule>
CC(=O)NCCCC[C@@H]1NC(=O)[C@@H]2C[C@H](C(=O)NCCCCCNC(=O)CS)[C@H](c3ccc(O)cc3)N2C1=O

>  <composite Z-score>
1.43

$$$$

----------
Biological target: Left-right determination factor 2 (Homo sapiens) (UniProt O00292)
Sequence (O00292 whole entry, looked up): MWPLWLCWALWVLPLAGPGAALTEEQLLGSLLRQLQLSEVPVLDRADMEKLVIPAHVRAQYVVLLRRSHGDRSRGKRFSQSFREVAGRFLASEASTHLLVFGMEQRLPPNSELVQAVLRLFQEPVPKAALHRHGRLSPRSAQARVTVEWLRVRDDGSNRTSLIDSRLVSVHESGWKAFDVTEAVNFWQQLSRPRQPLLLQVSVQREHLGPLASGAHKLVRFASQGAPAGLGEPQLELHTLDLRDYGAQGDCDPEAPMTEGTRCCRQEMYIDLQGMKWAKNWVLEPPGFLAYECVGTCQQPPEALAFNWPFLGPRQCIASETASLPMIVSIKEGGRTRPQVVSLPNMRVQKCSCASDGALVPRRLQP
Assay: LEFTY2 binders on small-molecule microarrays, primary screen, biochemical, small-molecule microarray, 635 nm fluorescence scan (AID 1110)
Conditions: LEFTY2 binding, higher = more signal
Measured composite z-score determines class: bottom range = under -0.1, center range = from -0.1 up to 0.5, top range = 0.5 and over

>  <compound>
CC(C)(C)OC(=O)CC[C@]1(C(=O)N2CCCCC2)N=C(c2ccc(OCCCO)cc2)O[C@H]1c1ccccc1

>  <label.class>
top range

$$$$
>  <compound>
O=C1C2C=CC(C(O)C(c3ccccc3)c3ccccc3)N(Nc3ccc([N+](=O)[O-])cc3)C2C(=O)N1c1ccccc1 (centres undefined)

>  <label.class>
top range

$$$$
>  <compound>
[N-]=[N+]=NCc1ccccc1C[C@@]1(C(=O)O)N=C(c2ccc(OCCCO)cc2)O[C@@H]1c1ccccc1N=[N+]=[N-]

>  <label.class>
center range

$$$$
>  <compound>
N#Cc1ccc(NN2C(C(O)CCc3ccccc3)C=CC3C(=O)N(c4ccccc4)C(=O)C32)cc1 (centres undefined)

>  <label.class>
bottom range

$$$$
>  <compound>
C#C[C@H](O[Si](C#Cc1ccccc1)(C(C)C)C(C)C)c1ccccc1

>  <label.class>
bottom range

$$$$
>  <compound>
COc1ccc([Si](C)(C)[C@@H]2[C@@H](CCO)O[C@]3(C(=O)N(Cc4ccc(NC(=O)[C@H](C)O)cc4)c4ccccc43)[C@H]2C)cc1

>  <label.class>
center range

$$$$
>  <compound>
O=C1C[C@@](C(=O)NC2CC2)(c2ccc([N+](=O)[O-])cc2)[C@@H](c2ccc(CO)cc2I)N1CC12CC3CC(CC(C3)C1)C2

>  <label.class>
top range

$$$$
>  <compound>
COCCOC(=O)N1C(=O)[C@@]2(c3cc(C#CCC(C(=O)OC)C(=O)OC)ccc31)[C@H](C(=O)N1CCN(c3ncccn3)CC1)[C@H]1C(=O)O[C@H](c3ccccc3)[C@H](c3ccccc3)N1[C@@H]2c1ccc(O)cc1

>  <label.class>
center range

$$$$
>  <compound>
COC(=O)Cn1c(C(=O)N2CCCC2)cc2c1C[C@H]1CN(C(=O)c3ccccc3)[C@@](Cc3ccc(OC)cc3)(C(=O)OC)[C@@H]21

>  <label.class>
bottom range

$$$$

----------
Experiment: PSAC antagonists in infected red cells, primary screen, cell-based, P. falciparum Indochina, OD700, 18 h (AID 1157)
Settings: P. falciparum Indochina infected erythrocytes, osmotic lysis OD700, 18 h; higher = more signal, called active from +8 up or from −8 down
measurement.label: z-score

>  <molecule.smiles>
COc1cc(CO)cc(I)c1O[C@H]1C=C(C(=O)NCCO)C[C@@H](NCCc2c[nH]c3ccccc23)[C@@H]1O

>  <measurement.label>
z-score

>  <reported.value>
-0.869

$$$$
>  <molecule.smiles>
CC(C)C[C@@H]1NC(=O)[C@H]2C[C@@H](C(=O)NCCCCCC[N+](C)(C)C)[C@@H](c3ccc(O)cc3)N2C1=O

>  <measurement.label>
z-score

>  <reported.value>
0.0558

$$$$
>  <molecule.smiles>
CO[C@H]1O[C@H](CO)[C@@H](OC(=O)CCc2ccccc2)[C@@H]2OC(=O)[C@H](Cc3cccc(Br)c3)C/C=C/C[C@@H](Cc3cccc(Br)c3)C(=O)O[C@@H]12

>  <measurement.label>
z-score

>  <reported.value>
-1.19

$$$$
>  <molecule.smiles>
C=C(COC)/C(=C/C[C@@H](OC(=O)c1ccncc1)c1ccc(OCCO)cc1)c1cc(C(=O)OC)ccc1OC

>  <measurement.label>
z-score

>  <reported.value>
-1.53

$$$$
>  <molecule.smiles>
COc1cc2c(cc1OC)CN(C(=O)[C@H]1[C@@H]3C(=O)O[C@@H](c4ccccc4)[C@@H](c4ccccc4)N3[C@@H](c3ccccc3OCCO)[C@]13C(=O)Nc1ccc(C#CC4(O)CCCCCC4)cc13)CC2

>  <measurement.label>
z-score

>  <reported.value>
1.89

$$$$

----------
Experiment: small-molecule microarray binders of probe aWnt5a, primary screen, biochemical, biotinylated probe, 635/667 nm fluorescence (AID 1113);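 further: score merges 667 nm fluorescence intensity with signal-to-noise per printed feature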
Conditions: higher = more signal
measurement.label: composite z-score

>  <molecule.smiles>
O=C1c2ccccc2[C@](Cc2ccccc2I)(C(=O)NCC(F)(F)F)[C@H](c2ccc(CO)cc2)N1Cc1ccccc1C(F)(F)F

>  <reported.value>
-0.149

$$$$
>  <molecule.smiles>
CCOC(=O)C1=C[C@@H](c2ccccc2)N(S(=O)(=O)c2ccc(C)cc2)[C@H]1c1ccc(F)cc1

>  <reported.value>
-0.0718

$$$$
>  <molecule.smiles>
C=CC[C@]1(C(=O)N2CCCCC2)N=C(c2ccc(OCCCO)cc2)O[C@H]1c1ccccc1N=[N+]=[N-]

>  <reported.value>
0.0327

$$$$
>  <molecule.smiles>
C=CCNC(=O)[C@H]1[C@@H]2C(=O)O[C@@H](c3ccccc3)[C@@H](c3ccccc3)N2[C@@H](c2ccccc2OCCO)[C@]12C(=O)N(C(=O)OCCOC)c1ccc(C#CCC(C(=O)OC)C(=O)OC)cc12

>  <reported.value>
-0.012

$$$$
>  <molecule.smiles>
COC(=O)[C@@]1(Cc2ccc(OC)cc2)[C@H]2c3cc(C(=O)N(C)C)n(CCc4ccc(OC)c(Br)c4)c3C[C@H]2CN1C(=O)c1ccccc1

>  <reported.value>
0.36

$$$$

----------
Experiment: basal S. cerevisiae growth modulation, no modifier, primary screen, OD600, strain BY4716, 24 h, basal condition (AID 1173)
Conditions: OD600, 24 h, higher = more signal, called active from +8 up or from −8 down
Measured z-score by item
measurement.label: z-score

>  <molecule>
C#C[C@H](O[Si](C#Cc1ccccc1)(C(C)C)C(C)C)c1ccccc1

>  <reported.value>
-17.7

$$$$
>  <molecule>
O=C1OCCC=C[C@H]2OC34C=CCN(Cc5ccccc5)C(=O)[C@H]3N(CCO)C(=O)[C@@H]4C12 (some centres undefined)

>  <reported.value>
-1.5

$$$$
>  <molecule>
O=C1c2ccccc2[C@](Cc2ccccc2I)(C(=O)NCC(F)(F)F)[C@H](c2ccc(CO)cc2)N1Cc1ccccc1C(F)(F)F

>  <reported.value>
-1.29

$$$$
>  <molecule>
COCCCNC(=O)[C@@]1(Sc2ccc(C)cc2)CC(=O)N(Cc2cc(C(F)(F)F)cc(C(F)(F)F)c2)[C@@H]1c1ccc(CO)cc1I

>  <reported.value>
-3.95

$$$$
>  <molecule>
CO[C@H]1COC(=O)[C@@H](Cc2ccccc2)NC(=O)[C@@H](C)COC(=O)CC=C[C@@H]1C

>  <reported.value>
-1.14

$$$$
>  <molecule>
O=C(NCC(O)CO)[C@]1(Cc2ccccc2)N=C(c2ccc(OCCCO)cc2)O[C@@H]1c1ccccc1 (some centres undefined)

>  <reported.value>
-3.32

$$$$
>  <molecule>
CCCC[C@H]1OB(O)C[C@H]2C1=C(COC)C[C@H]1C(=O)N(Cc3ccccc3)C(=O)[C@H]12

>  <reported.value>
-3.65

$$$$
>  <molecule>
O=C1C2C=CC(C(O)C(c3ccccc3)c3ccccc3)N(Nc3ccc([N+](=O)[O-])cc3)C2C(=O)N1c1ccccc1 (centres undefined)

>  <reported.value>
0.852

$$$$
>  <molecule>
C=CCC(OC(C)=O)[C@@H]1[C@@H](N(Cc2cc3ccccc3o2)C(=O)Cc2ccc(F)cc2)c2cc(OCCCO)ccc2N1C(=O)c1ccc(-c2ccccc2)cc1 (some centres undefined)

>  <reported.value>
-0.588

$$$$
